Values were extracted from patent US20060252807A1.

Recorded measurements of IC50, one per entry
target: active p38 alpha enzyme (Upstate Biotechnology) (Homo sapiens, UniProt Q16539); construct: purchased Upstate Biotechnology; assay: p38α biochemical assay (ATP turnover, luminescent detection, Cambrex PKlight); details: p38α biochemical assay, Table 1 Biological Activity
Sequence (Q16539 whole entry): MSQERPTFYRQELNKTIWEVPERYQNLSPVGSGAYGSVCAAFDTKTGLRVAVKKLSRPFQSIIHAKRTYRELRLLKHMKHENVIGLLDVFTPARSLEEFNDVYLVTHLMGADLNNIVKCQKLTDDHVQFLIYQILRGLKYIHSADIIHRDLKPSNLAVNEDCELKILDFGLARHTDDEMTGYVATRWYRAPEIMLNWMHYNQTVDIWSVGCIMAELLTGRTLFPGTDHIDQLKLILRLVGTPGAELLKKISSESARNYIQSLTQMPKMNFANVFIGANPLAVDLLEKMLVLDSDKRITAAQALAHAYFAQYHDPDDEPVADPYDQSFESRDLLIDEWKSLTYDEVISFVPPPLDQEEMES

Cc1onc(-c2ccc(F)c(Cl)c2)c1-c1ccn(C(=O)NC(C)C)n1 :: ≤ 1 µM
CC(C)NC(=O)c1csc(-c2oc(CN3CCN(C(=O)c4ccc(Oc5cccc(O)c5)cc4)CC3)nc2-c2ccc(F)cc2)n1 :: > 1 µM
Cc1cc(C(=O)NCc2onc(-c3ccc(F)cc3)c2-c2nc(C(=O)NC(C)C)cs2)n[nH]1 :: > 1 µM
Cc1nc(-c2ccc(F)cc2)c(-c2nc(C(=O)NCc3ccccn3)cs2)s1 :: ≤ 1 µM

Recorded IC50 of CC(C)NC(=O)c1csc(-c2c(-c3ccc(F)cc3)noc2CNC(=O)C2CCCN2C(=O)OC(C)(C)C)n1 (stereo not drawn) , please.
> 1 µM

Repeat with CC(C)NC(=O)c1csc(-c2oc(CN3CCN(C(=O)C(C(C)C)N(C)C(=O)OC(C)(C)C)CC3)nc2-c2ccc(F)cc2)n1 (stereo not drawn)
> 1 µM

Further, for CC(C)NC(=O)c1csc(-c2oc(CNC(=O)c3ccc(C(F)(F)F)cc3[N+](=O)[O-])nc2-c2ccc(F)cc2)n1 ?
≤ 1 µM
